# target: NRAS G12C (Homo sapiens, UniProt P01111+P62937, G12C)
# Sequence (P01111 whole entry G12C): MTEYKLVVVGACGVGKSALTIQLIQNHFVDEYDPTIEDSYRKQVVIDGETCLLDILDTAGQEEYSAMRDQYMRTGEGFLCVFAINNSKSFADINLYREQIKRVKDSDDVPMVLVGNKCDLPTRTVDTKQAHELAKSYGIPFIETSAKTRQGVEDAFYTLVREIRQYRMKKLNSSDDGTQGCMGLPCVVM
# Sequence (P62937 whole entry): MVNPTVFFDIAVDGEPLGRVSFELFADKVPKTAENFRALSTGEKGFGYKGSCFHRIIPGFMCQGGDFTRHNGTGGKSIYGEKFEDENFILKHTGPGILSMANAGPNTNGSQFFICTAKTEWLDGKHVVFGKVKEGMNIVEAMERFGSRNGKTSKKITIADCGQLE
# assay.details: Ras-Raf disruption / FRET / MOA assay (BRAF RBD)
# Assay type: biochemical
# experimental.context: NRAS G12C; read-out: NRAS G12C FRET data IC50
pIC50: −log10 of the molar value.
observation.type: pIC50

Solved cases (3 shown):
CCn1c(-c2cccnc2[C@H](C)OC)c2c3cc(ccc31)-c1csc(n1)C[C@H](NC(=O)[C@H](C(C)C)N(C)C(=O)N1CC(N(C)C(=O)[C@H]3CN3)C1)C(=O)N1CCC[C@H](N1)C(=O)OCC(C)(C)C2 [Example 218]	7.00 to 8.00
CCn1c(-c2cccnc2[C@H](C)OC)c2c3cc(ccc31)-c1cc(O)cc(c1)C[C@H](NC(=O)[C@H](C(C)C)N(C)C(=O)N1CC[C@@H](N(C)C(=O)[C@@H]3CN3)C1)C(=O)N1CCC[C@H](N1)C(=O)OCC(C)(C)C2 (atropisomer, axis not shown) [Example 253]	7.00 to 8.00
CCn1c(-c2cccnc2[C@H](C)OC)c2c3cc(ccc31)-c1csc(n1)C[C@H](NC(=O)[C@H](C(C)C)N(C)C(=O)N1CC(CN(C)C(=O)[C@@H]3CN3)C1)C(=O)N1CCC[C@H](N1)C(=O)OCC(C)(C)C2 (atropisomer, axis not shown) [Example 225]	7.00 to 8.00

Exercise: For the compound CCn1c(-c2cccnc2[C@H](C)OC)c2c3cc(ccc31)-c1cc(O)cc(c1)C[C@H](NC(=O)[C@H](C(C)C)N(C)C(=O)N1CC[C@H](N(C)C(=O)[C@@H]3CN3)C1)C(=O)N1CCC[C@H](N1)C(=O)OCC(C)(C)C2 (atropisomer, axis not shown) [Example 255] , what pIC50 is on record?
Solution: 7.00 to 8.00

Exercise: Same for CCn1c(-c2cccnc2[C@H](C)OC)c2c3cc(ccc31)-c1cc(O)cc(c1)C[C@H](NC(=O)[C@H](C(C)C)N(C)C(=O)c1ccc([C@@H]3CN3)nc1)C(=O)N1CCC[C@H](N1)C(=O)OCC(C)(C)C2 [Example 87]
Solution: 7.00 to 8.00

Exercise: Same for CCn1c(-c2cccnc2[C@H](C)OC)c2c3cc(ccc31)-c1csc(n1)C[C@H](NC(=O)[C@H](C(C)C)N(C)C(=O)N(C)[C@H]1CCN(C(=O)[C@H]3CN3)C1)C(=O)N1CCC[C@H](N1)C(=O)OCC(C)(C)C2 (atropisomer, axis not shown) [Example 296]
Solution: 6.00 to 7.00

* * *

Overview of reported IC50 across a group of compounds:
# target: NRAS G12C (Homo sapiens, UniProt P01111+P62937, G12C)
# assay.details: Disruption of BRAF RBD interaction with Ras (FRET / MOA assay, with Cyclophilin A)
# Type: biochemical
# experimental.context: NRAS G12C FRET data IC50, NRAS G12C
# Source text: This protocol may also be executed substituting other Ras proteins or nucleotides. The purpose of this biochemical assay was to measure the ability of test compounds to facilitate ternary complex formation between a nucleotide-loaded K-Ras isoform and Cyclophilin A; the resulting ternary complex disrupts binding to a BRAF^RBD construct, inhibiting K-Ras signaling through a RAF effector. Data is reported as IC50 values. […]

Solved cases (10 shown):
CCn1c(-c2cnccc2COC)c2c3cc(ccc31)-c1cc(O)cc(c1)C[C@H](NC(=O)[C@H](C(C)C)N(C)C(=O)[C@H]1CCN(CCO)C1)C(=O)N1CCC[C@H](N1)C(=O)OCC(C)(C)C2	100 to 1000 nM
CCn1c(-c2cnccc2COC)c2c3cc(ccc31)-c1cc(O)cc(c1)C[C@H](NC(=O)[C@H](C(C)C)N(C)C(=O)[C@H]1CCCO1)C(=O)N1CCC[C@H](N1)C(=O)OCC(C)(C)C2	100 to 1000 nM
CCn1c(-c2cccnc2[C@H](C)OC)c2c3cc(ccc31)-c1cc(O)cc(c1)C[C@H](NC(=O)[C@H](C(C)C)N(C)C(=O)C1CCNCC1)C(=O)N1CCC[C@H](N1)C(=O)OCC(C)(C)C2	100 to 1000 nM
CCn1c(-c2cccnc2[C@H](C)OC)c2c3cc(ccc31)-c1csc(n1)C[C@H](NC(=O)[C@H](C(C)C)N(C)C(=O)N1CC(N)(C#N)C1)C(=O)N1CCC[C@H](N1)C(=O)OCC(C)(C)C2	100 to 1000 nM
CCn1c(-c2cnccc2COC)c2c3cc(ccc31)-c1cc(O)cc(c1)C[C@H](NC(=O)[C@H](C(C)C)N(C)C(=O)[C@H]1CCN(S(C)(=O)=O)C1)C(=O)N1CCC[C@H](N1)C(=O)OCC(C)(C)C2	100 to 1000 nM
CCn1c(-c2cnccc2COC)c2c3cc(ccc31)-c1cc(O)cc(c1)C[C@H](NC(=O)[C@H](C(C)C)N(C)C(=O)[C@H](C)O)C(=O)N1CCC[C@H](N1)C(=O)OCC(C)(C)C2	100 to 1000 nM
CCn1c(-c2cnccc2COC)c2c3cc(ccc31)-c1cc(O)cc(c1)C[C@H](NC(=O)[C@H](C(C)C)N(C)C(=O)C1CCN(C)CC1)C(=O)N1CCC[C@H](N1)C(=O)OCC(C)(C)C2	1000 to 10000 nM
CCn1c(-c2cccnc2[C@H](C)OC)c2c3cc(ccc31)-c1csc(n1)C[C@H](NC(=O)[C@H](C(C)C)N(C)C(=O)N1CCC(N(C)C)CC1)C(=O)N1CCC[C@H](N1)C(=O)OCC(C)(C)C2 (atropisomer, axis not shown)	10 to 100 nM
CCn1c(-c2cccnc2[C@H](C)OC)c2c3cc(ccc31)-c1csc(n1)C[C@H](NC(=O)[C@H](C(C)C)N(C)C(=O)N1CCOC[C@@H]1CN(C)C)C(=O)N1CCC[C@H](N1)C(=O)OCC(C)(C)C2	1000 to 10000 nM
CCn1c(-c2cnccc2COC)c2c3cc(ccc31)-c1cc(O)cc(c1)C[C@H](NC(=O)[C@H](C(C)C)N(C)C(=O)[C@H]1CCN(C(=O)N(C)C)C1)C(=O)N1CCC[C@H](N1)C(=O)OCC(C)(C)C2	1000 to 10000 nM

Next, consider the following compound.
Exercise: For the compound `CCN1C[C@@H](C(=O)N(C)[C@H](C(=O)N[C@H]2Cc3cc(O)cc(c3)-c3ccc4c(c3)c(c(-c3cnccc3COC)n4CC)CC(C)(C)COC(=O)[C@@H]3CCCN(N3)C2=O)C(C)C)CC1=O` , what IC50 is on record?
Solution: 100 to 1000 nM

* * *

Overview of reported IC50 across a group of compounds:
# target: KRAS WT (Homo sapiens, UniProt P01116+P62937)
# Sequence (P01116 1-169 isoform P01116-2 limits assumed, one chain of several): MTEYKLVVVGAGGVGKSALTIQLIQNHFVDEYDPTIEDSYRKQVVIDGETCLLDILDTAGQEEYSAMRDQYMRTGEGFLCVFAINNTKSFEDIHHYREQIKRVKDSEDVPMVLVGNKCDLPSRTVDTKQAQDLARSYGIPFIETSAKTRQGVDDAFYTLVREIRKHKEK
# assay.details: Disruption of BRAF RBD interaction with Ras (FRET / MOA assay, with Cyclophilin A)
# Assay type: biochemical
# experimental.context: KRAS WT; read-out: KRAS WT FRET data IC50

Exercise: For the compound CCn1c(-c2cccnc2[C@H](C)OC)c2c3cc(ccc31)-c1cc(O)cc(c1)C[C@H](NC(=O)[C@@H](NC(C)=O)C(C)(C)OC)C(=O)N1CCC[C@H](N1)C(=O)OCC(C)(C)C2 (racemic) [Example A172] , what IC50 is on record?
Solution: > 10 µM

Exercise: Same for CCn1c(-c2cccnc2[C@H](C)OC)c2c3cc(ccc31)-c1csc(n1)C[C@H](NC(=O)[C@H](C(C)C)N(C)C(=O)[C@@H]1CCN(C)[C@@H]1c1ccccc1)C(=O)N1CCC[C@H](N1)C(=O)OCC(C)(C)C2 [Example A464]
Solution: 1 to 10 µM

* * *

Overview of reported IC50 across a group of molecules:
# target: KRAS G13D (Homo sapiens, UniProt P01116+P62937, G13D)
# Sequence (P01116 1-169 isoform P01116-2 G13D limits assumed, one chain of several): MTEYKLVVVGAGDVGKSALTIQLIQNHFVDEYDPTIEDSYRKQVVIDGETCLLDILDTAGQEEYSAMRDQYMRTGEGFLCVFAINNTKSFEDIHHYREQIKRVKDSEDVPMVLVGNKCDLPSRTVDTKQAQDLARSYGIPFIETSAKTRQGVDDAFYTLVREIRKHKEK
# assay.details: Disruption of BRAF RBD interaction with Ras (FRET / MOA assay, with Cyclophilin A)
# Assay type: biochemical
# experimental.context: KRAS G13D; read-out: KRAS G13D FRET data IC50
# Description: This protocol may also be executed substituting other Ras proteins or nucleotides. The purpose of this biochemical assay was to measure the ability of test compounds to facilitate ternary complex formation between a nucleotide-loaded K-Ras isoform and Cyclophilin A; the resulting ternary complex disrupts binding to a BRAF^RBD construct, inhibiting K-Ras signaling through a RAF effector. Data is reported as IC50 values. […]

Solved cases (3 shown):
C=CC(=O)N1CCOC2(CCN(C(=O)N(C)[C@H](C(=O)N[C@H]3Cc4cc(CF)cc(c4)-c4ccc5c(c4)c(c(-c4cccnc4[C@H](C)OC)n5CC(F)(F)F)CC(C)(C)COC(=O)C4CCCN(N4)C3=O)C(C)C)CC2)C1 (stereo partly shown) [Example A605]	100 to 1000 nM
C=C[C@@H]1C[C@]1(N)C(=O)N(C)[C@H](C(=O)N[C@H]1Cc2cc(O)cc(c2)-c2ccc3c(c2)c(c(-c2cccnc2[C@H](C)OC)n3CC)CC(C)(C)COC(=O)[C@@H]2CCCN(N2)C1=O)C(C)C [Example A149]	100 to 1000 nM
CCn1c(-c2cccnc2[C@H](C)OC)c2c3cc(ccc31)-c1csc(n1)C[C@H](NC(=O)[C@H](C(C)C)N(C)C(=O)[C@@H]1CCN(C)[C@@H]1c1ccccc1)C(=O)N1CCC[C@H](N1)C(=O)OCC(C)(C)C2 [Example A464]	1000 to 10000 nM

Next, consider the following molecule.
Exercise: For the molecule C=CC(=O)N1CCO[C@H]2CN(C(=O)N(C)[C@H](C(=O)N[C@H]3CN4CCC=C(C4)c4ccc5c(c4)c(c(-c4cccnc4[C@H](C)OC)n5CC)CC(C)(C)COC(=O)[C@@H]4CCCN(N4)C3=O)C(C)C)C[C@H]21 [Example A552] , what IC50 is on record?
Solution: 1000 to 10000 nM
